Tyrosinase (Agaricus bisporus) measurements of pIC50, listed per entry.
In plain terms, pIC50 is the concentration in mol/L turned into minus its base-10 logarithm.

CCCCC/C=C\C/C=C\CCCc1cc(O)cc(O)c1 = 5.77

Would you kindly look at the next entry?
The recorded pIC50 for entry O=S([O-])O.[Na+] [SODIUM BISULFITE] equals 3.68

* * *

Study system: Tyrosinase (Agaricus bisporus, UniProt O42713)
Sequence (O42713 whole entry): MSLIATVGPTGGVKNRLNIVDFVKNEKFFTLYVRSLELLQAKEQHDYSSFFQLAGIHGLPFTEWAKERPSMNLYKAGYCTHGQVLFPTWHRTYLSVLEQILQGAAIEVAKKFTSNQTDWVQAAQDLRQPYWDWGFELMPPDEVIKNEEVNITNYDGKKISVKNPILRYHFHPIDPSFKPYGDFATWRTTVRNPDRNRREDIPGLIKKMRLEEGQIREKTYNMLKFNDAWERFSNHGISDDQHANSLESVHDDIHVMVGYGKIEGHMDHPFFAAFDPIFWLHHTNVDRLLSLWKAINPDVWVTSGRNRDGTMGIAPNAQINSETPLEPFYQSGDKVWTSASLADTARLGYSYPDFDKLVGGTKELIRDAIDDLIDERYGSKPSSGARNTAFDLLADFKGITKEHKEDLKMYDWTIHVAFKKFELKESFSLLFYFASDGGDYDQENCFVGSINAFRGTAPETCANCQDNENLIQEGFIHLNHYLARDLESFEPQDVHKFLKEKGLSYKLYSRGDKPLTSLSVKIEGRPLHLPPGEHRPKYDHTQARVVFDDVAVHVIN
Endpoint label: IC50 (µM)
Reply numerically in µM, unit not repeated.

Oc1ccc(O)cc1 [HYDROQUINONE] = 1090
CC1(C)C=Cc2c(cc3c(c2O)C(=O)CC(c2ccc(O)cc2O)O3)O1 (centres undefined) = 18.6
O=C1CC(c2ccc(O)cc2O)Oc2cc(O)cc(O)c21 (centres undefined) = 26.5

Would you kindly look at the next entry?
CCCCC/C=C\C/C=C\CCCc1cc(O)cc(O)c1 on Tyrosinase (Agaricus bisporus, UniProt O42713) gives IC50 = 51.9
